# Assay Target: mA2a/CHO (Mus musculus (Mouse), UniProt Q60613)
# Sequence (Q60613 whole entry): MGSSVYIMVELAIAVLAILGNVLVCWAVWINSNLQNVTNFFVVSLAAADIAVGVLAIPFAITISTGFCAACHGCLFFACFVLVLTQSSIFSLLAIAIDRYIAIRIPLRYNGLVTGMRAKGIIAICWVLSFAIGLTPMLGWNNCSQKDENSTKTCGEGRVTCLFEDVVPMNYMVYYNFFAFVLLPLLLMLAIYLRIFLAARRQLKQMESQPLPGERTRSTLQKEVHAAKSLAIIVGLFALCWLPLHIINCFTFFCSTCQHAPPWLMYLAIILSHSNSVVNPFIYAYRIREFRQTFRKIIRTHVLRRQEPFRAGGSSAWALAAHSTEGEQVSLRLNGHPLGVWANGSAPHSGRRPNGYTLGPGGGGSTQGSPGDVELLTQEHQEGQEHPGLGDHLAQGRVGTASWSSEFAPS
# Test Details: cAMP inhibition assay in mA2a/CHO cells, 10 μM adenosine;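 note: compounds preincubated 30 min at 37 °C before the adenosine challenge, then 30 min further stimulation, readout after 60 min detection reagent incubation at room temperature in 384-well plates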
# Format: cell-based
# Measurement Parameters: read-out: cAMP & FLIPR IC50 (nM) mA2a
Threshold check on IC50: strictly below 100 nM is rule met; on or above 100 nM is rule not met.

Criterion: IC50 strictly below 100 nM. Is it met by Cc1cnc2ccc(-c3nc(C(=O)NC[C@H]4CCCN4)c(N)nc3-c3ncco3)cn12 ?
rule not met

# TODO verify IC50 < 100 nM strictly for this molecule: Cn1cc(-c2nc(C(=O)NCc3cccc(N)n3)c(N)nc2-c2ncco2)ccc1=O
rule not met

Answer whether the molecule Cc1cc(-c2nc(C(=O)Nc3ccccc3OC(F)F)c(N)nc2-n2ccc(C)n2)cc(N)n1 has IC50 strictly less than 100 nM
rule not met

Take the molecule Nc1nc(-c2ncco2)c(-c2ccc(=O)n(CCO)c2)nc1C(=O)NCc1c(F)cccc1F and say whether its IC50 is less than 100 nM.
rule met

Consider the molecule COc1ccccc1CNC(=O)c1nc(-c2cc(C)nc(C)c2)c(-c2ccc(C)o2)nc1N . Is its IC50 strictly less than 100 nM?
rule met

IC50 strictly < 100 nM for this molecule? CCn1cc(-c2nc(C(=O)NCc3ccccc3OC)c(N)nc2-c2ccc(F)cc2)ccc1=O
rule met

Is the reported IC50 for Nc1nc(-c2ncco2)c(-c2ccc3nccn3c2)nc1C(=O)NCc1ncccc1F strictly below 100 nM?
rule not met

Is the reported IC50 for Cc1cc(-c2nc(C(=O)NCc3c(F)cccc3F)c(N)nc2-c2cnn(C)c2)cc(C)n1 strictly below 100 nM?
rule not met

* * *

Please respond with reported log10 of IC50 for every item in the list.
# Assay Target: hA2b/CHO (Homo sapiens (Human), UniProt P29275)
# Sequence (P29275 whole entry): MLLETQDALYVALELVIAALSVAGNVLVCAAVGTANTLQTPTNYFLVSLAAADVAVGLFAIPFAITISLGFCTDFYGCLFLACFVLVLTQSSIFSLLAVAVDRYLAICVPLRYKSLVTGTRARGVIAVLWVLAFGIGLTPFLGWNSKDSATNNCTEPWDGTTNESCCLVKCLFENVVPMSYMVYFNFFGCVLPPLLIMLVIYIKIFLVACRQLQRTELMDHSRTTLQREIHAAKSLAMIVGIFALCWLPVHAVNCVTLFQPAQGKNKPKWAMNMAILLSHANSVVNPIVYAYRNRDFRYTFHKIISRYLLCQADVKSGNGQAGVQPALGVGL
# Test Details: cAMP inhibition assay in hA2b/CHO cells, 10 μM adenosine;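 note: cells exposed to compound 30 min at 37 °C, then stimulated with adenosine a further 30 min, cAMP read after 60 min at room temperature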
# Format: cell-based
# Measurement Parameters: read-out: cAMP & FLIPR IC50 (nM) hA2b
Units before log transform: nM; reported quantity: IC50; transform: log10.

Name the recorded log10 of IC50 of the item COc1ccccc1CNC(=O)c1nc(-c2cc(C)c(=O)n(C)c2)c(-c2ccc(F)cc2)nc1N in your answer.
2.44

Please look at this compound and report its log10 of IC50: Cc1cc(-c2nc(C(=O)NCc3c(F)cccc3F)c(N)nc2-c2ncco2)ccn1
1.23

Output log10 of IC50 of Cc1cnc2ccc(-c3nc(C(=O)NCC4CCCN4C)c(N)nc3-c3ncco3)cn12 (single isomer, unassigned) [Example 121]
2.87

Fill in log10 of IC50 for record Cc1cnc2ccc(-c3nc(C(=O)NC[C@@H]4CCOC4)c(N)nc3-c3ncco3)cn12
2.67

Provide log10 of IC50 value for the following compound: Cc1cnc2ccc(-c3nc(C(=O)NCC4(C)CCCN4C)c(N)nc3-c3ncco3)cn12 (single isomer, unassigned; isomer 2)
3.30

Kindly indicate its recorded log10 of IC50. Item: CN(C)c1cccnc1CNC(=O)c1nc(-c2ccc(=O)n(C)c2)c(-c2ncco2)nc1N
2.53

* * *

# Assay Target: mA2a/CHO (Mus musculus (Mouse))
# Test Details: cAMP inhibition assay in mA2a/CHO cells, 10 μM adenosine
# Format: cell-based
# Measurement Parameters: read-out: cAMP & FLIPR IC50 (nM) mA2a
Experimental Readout: log10 of IC50 (log10 of the value in nM)
Transform log10 | Measure IC50 | Unit nM

Please report log10 of IC50 for the following molecule: Cc1cc(-c2nc(C(=O)NCc3cccc(N(C)C)n3)c(N)nc2-c2ccc(F)cc2)cc(C)n1
1.40

Provide one value: measured log10 of IC50 of COc1ccccc1CNC(=O)c1nc(-c2ccc(=O)n(C)c2)c(-c2ccc(F)cc2)nc1N
1.40

Identify measured log10 of IC50 associated with Cc1cnc2ccc(-c3nc(C(=O)NCCn4cccn4)c(N)nc3-c3ncco3)cn12
0.54

In one line, give reported log10 of IC50 of the entry CC(O)Cn1cc(-c2nc(C(=O)NCc3c(F)cccc3F)c(N)nc2-c2ncco2)ccc1=O (single isomer, unassigned) [Example 108] .
0.56

Consider the molecule Cc1cnc2ccc(-c3nc(C(=O)NC[C@H](C)O)c(N)nc3-c3ncco3)cn12 . State its measured log10 of IC50.
2.00

Provide one value: measured log10 of IC50 of Cc1cc(-c2nc(C(=O)NCc3ccccc3C(F)F)c(N)nc2-c2ccc(F)cc2)cc(C)n1
3.20

Supply recorded log10 of IC50 for COC[C@@H](C)NC(=O)c1nc(-c2ccc3ncc(C)n3c2)c(-c2ncco2)nc1N here.
1.12

Name the recorded log10 of IC50 of the molecule listed here: Cc1cc(-c2nc(C(=O)NCc3c(F)cccc3F)c(N)nc2-c2ccc(C)o2)cc(C)n1
1.45

* * *

# Assay Target: mA2a/CHO (Mus musculus (Mouse))
# Test Details: cAMP inhibition assay in mA2a/CHO cells, 10 μM adenosine
# Type: cell-based
# Measurement Parameters: read-out: cAMP & FLIPR IC50 (nM) mA2a
What IC50 was measured for each of the following?
Field: numeric (nM). Do not append units.

Complete the entry with IC50 for Cc1cnc2ccc(-c3nc(C(=O)NCCOC(F)(F)F)c(N)nc3-c3ncco3)cn12 [Example 148]
1.1

Identify measured IC50 corresponding to Cc1cnc2ccc(-c3nc(C(=O)NCCC#N)c(N)nc3-c3ncco3)cn12 [Example 142]
73

Fill in IC50 for record Cc1cc(-c2nc(C(=O)NCc3ccccc3OC(F)F)c(N)nc2-c2ccc(F)cc2)cc(C)n1 [Example 91]
72

Using known records, supply IC50 for Cc1cnc2ccc(-c3nc(C(=O)NCCN(C)C)c(N)nc3-c3ncco3)cn12 [Example 153]
120

Return IC50 for the following compound: Cc1cnc2ccc(-c3nc(C(=O)NC[C@@H]4CCN(C(=O)C5CC5)C4)c(N)nc3-c3ncco3)cn12 [Cmpd. 221]
33

Give recorded IC50. Cc1cc(-c2nc(C(=O)NCc3ncccc3F)c(N)nc2-c2ccc(F)cc2)cc(C)n1 [Example 1]
1060

Entry COCCOc1cccnc1CNC(=O)c1nc(-c2ccc3ncn(C)c3c2)c(-c2ccc(F)cc2)nc1N [Example 114] needs its IC50 filled in; supply it.
1.5

Annotate the compound COc1ccccc1CNC(=O)c1nc(-c2cc(C)nc(C)c2)c(-c2ccc(F)cc2)nc1N [Example 89] with its measured IC50.
297

Supply reported IC50 belonging to this compound: COC(C)CNC(=O)c1nc(-c2ccc3ncc(C)n3c2)c(-c2ncco2)nc1N (single isomer, unassigned; isomer 2) [Example 241]
27

Supply recorded IC50 for Cc1cnc2ccc(-c3nc(CNC(=O)[C@@H]4CCCN4C)c(N)nc3-c3ccc(F)cc3)cn12 [Example 156] here.
41

Indicate the recorded IC50 value for this compound: Cn1cnc2ccc(-c3nc(C(=O)NCc4ncccc4F)c(N)nc3-c3ncco3)cc21 [Example 51]
9.6

Provide IC50 value for the following compound: Nc1nc(-c2ncco2)c(-c2ccc3ncnn3c2)nc1C(=O)NCc1ncccc1F [Example 100]
4530

Name the recorded IC50 of the item Cc1cnc2ccc(-c3nc(C(=O)NC[C@@H]4CCCO4)c(N)nc3-n3nccn3)cn12 [Example 226] in your answer.
30

Identify IC50 associated with the compound Cc1cnc2ccc(-c3nc(C(=O)NC[C@@H]4CCCO4)c(N)nc3-c3ncco3)cn12 [Example 127]
14

* * *

# Assay Target: hA2a/CHO (Homo sapiens (Human))
# Sequence (P29274 whole entry): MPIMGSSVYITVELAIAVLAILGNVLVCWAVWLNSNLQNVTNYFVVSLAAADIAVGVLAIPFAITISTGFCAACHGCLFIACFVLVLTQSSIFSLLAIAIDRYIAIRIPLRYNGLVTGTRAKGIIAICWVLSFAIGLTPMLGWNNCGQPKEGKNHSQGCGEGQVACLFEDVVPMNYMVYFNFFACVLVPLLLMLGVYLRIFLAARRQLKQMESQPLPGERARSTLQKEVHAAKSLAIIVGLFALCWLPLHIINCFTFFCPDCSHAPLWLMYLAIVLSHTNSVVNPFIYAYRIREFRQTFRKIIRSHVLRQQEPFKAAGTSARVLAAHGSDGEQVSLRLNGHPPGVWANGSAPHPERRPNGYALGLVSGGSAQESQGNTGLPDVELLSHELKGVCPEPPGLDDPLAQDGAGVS
# Test Details: cAMP inhibition assay in hA2a/CHO cells, 10 μM adenosine;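 note: compounds added to cells 30 min ahead of adenosine, then a further 30 min at 37 °C with adenosine before cAMP detection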
# Assay type: cell-based
# Measurement Parameters: read-out: cAMP & FLIPR IC50 (nM) hA2a
With a cut-off of 10 nM, any IC50 strictly below it is called 1.0; any IC50 meeting it or above is called 0.0.

Lab note: IC50 threshold 10 nM. Does this compound come in strictly under it? Cc1cnc2ccc(-c3nc(C(=O)NCc4cccc(C5CCN(C)CC5)n4)c(N)nc3-c3ncco3)cn12
0.0

Please let me know if Cc1cnc2ccc(-c3nc(C(=O)NCC4CCCOC4)c(N)nc3-c3ncco3)cn12 (single isomer, unassigned; isomer 2) [Example 168] shows IC50 below 10 nM.
1.0

Is IC50 of COc1ccccc1CNC(=O)c1nc(-c2cc(C)nc(C)c2)c(-c2ccccc2)nc1N strictly below 10 nM?
1.0

I'd appreciate it if you could check whether COc1ccccc1CNC(=O)c1nc(-c2ccc(=O)n(C(F)F)c2)c(-c2ccc(F)cc2)nc1N has IC50 smaller than 10 nM.
1.0

Find out if reported IC50 for Nc1nc(-c2ncco2)c(-c2ccc3nncn3c2)nc1C(=O)NCc1c(F)cccc1F is less than 10 nM
0.0

Input CN(C)c1cccc(CNC(=O)c2nc(-c3ccc(=O)n(C)c3)c(-c3ncco3)nc2N)n1 ; condition: IC50 strictly below 10 nM. Does it hold?
0.0

Could you please tell me whether IC50 recorded for Cc1cnc2ccc(-c3nc(C(=O)NCC4CCCCN4C)c(N)nc3-c3ncco3)cn12 (single isomer, unassigned; isomer 2) [Example 125] is less than 10 nM?
0.0

Reference source for all entries: patent US10898481B2
